Reported log10 of IC50 values follow for various compounds
# Test system: Plasmodium falciparum
# METHOD_SUMMARY: Hit confirmation in dose-response curve in NF54 pLDH assay, at 72h
# Assay type: functional, organism-based
# Design: timepoint 72 hour
# ASSAY_CONTEXT: NF54, Erythrocyte
MEASURED_ENDPOINT: log10 of IC50 (log10 of the value in µM)

SAMPLE_SMILES: CC(C)N(CC(=O)Nc1nccs1)Cc1ccccn1
MEASURED_RESULT: 0.23
--
SAMPLE_SMILES: CNc1nc(NCCc2ccccc2)nc2ccccc12
MEASURED_RESULT: 0.27
--
SAMPLE_SMILES: COc1ccccc1CN(C(=O)c1ccc(C)cc1)c1ccc(CC(=O)NCCN2CCCCC2)cc1
MEASURED_RESULT: -0.29
--
SAMPLE_SMILES: Cc1ccccc1Cn1cnc2c1c(=O)n(C1CCCCC1)c(=O)n2-c1ccccc1Cl
MEASURED_RESULT: 0.74
--
SAMPLE_SMILES: Cc1ccccc1C(=O)Cc1ncc[nH]1
MEASURED_RESULT: 0.76
--
SAMPLE_SMILES: Cc1cc(-c2cc(O)cc(CC[C@H]3CCCCN3)c2)ccn1
MEASURED_RESULT: -0.57
--
SAMPLE_SMILES: Cc1cccc(-c2nc(C[N+]3(Cc4nc(-c5cccc(C)c5)oc4C)CCCC3)c(C)o2)c1
MEASURED_RESULT: 0.68
--
SAMPLE_SMILES: CCN1CCN(C2CCN(c3ncc(F)c(OC)n3)CC2)CC1
MEASURED_RESULT: 0.59
--
SAMPLE_SMILES: COc1ccc(C)c2sc(N(CCCn3ccnc3)C(=O)Cc3ccc(F)cc3)nc12
MEASURED_RESULT: 0.64

* * *

# Test system: Plasmodium falciparum
# METHOD_SUMMARY: Hit confirmation in dose-response curve in NF54 pLDH assay, at 72h
# Assay type: functional, organism-based
# Set-up: timepoint 72 hour
# ASSAY_CONTEXT: NF54, Erythrocyte
Let's look at some compounds and their measured IC50.

COMPOUND: O=C(CCn1c(=O)[nH]c2ccsc2c1=O)NCc1ccccc1
SYSTEM: Plasmodium falciparum
IC50: > 10 µM

COMPOUND: CCc1cc(N2C[C@@H]3NC(=O)CN(C)Cc4ccc(OC)c(c4)Oc4cccc(c4)CO[C@H]3C2)nc(N(C)C)n1
SYSTEM: Plasmodium falciparum
IC50: 3.47 µM

COMPOUND: CC[C@@]1(C)CCCN(C(=O)Cc2c(C)noc2Cl)C1
SYSTEM: Plasmodium falciparum
IC50: 4.37 µM

COMPOUND: O=C(Nc1ccccc1Cl)N1CCC(N2CCc3sccc3C2)CC1
SYSTEM: Plasmodium falciparum
IC50: 3.55 µM

COMPOUND: Cn1c(N)c(S(=O)(=O)N2CCN(c3ccccc3Cl)CC2)c(=O)n(C)c1=O
SYSTEM: Plasmodium falciparum
IC50: > 10 µM

COMPOUND: Cc1cccc(CN(Cc2cccc(C)n2)C[C@H]2CCCCO2)n1
SYSTEM: Plasmodium falciparum
IC50: 0.676 µM

COMPOUND: CCCC[C@H](Oc1ccc(C(C)(C)CC)cc1C(C)(C)CC)C(=O)Nc1ccc(NC(=O)C(F)(F)C(F)(F)C(F)(F)F)c(O)c1
SYSTEM: Plasmodium falciparum
IC50: > 10 µM

COMPOUND: c1ccc(-c2nc(C[n+]3ccc4c(c3)CCCC4)cs2)cc1
SYSTEM: Plasmodium falciparum
IC50: 0.0891 µM

COMPOUND: O=C(NCCN1CCCC1)c1ccc2nc(-c3ccc(Cl)cc3)cn2c1
SYSTEM: Plasmodium falciparum
IC50: 2.69 µM

COMPOUND: Cc1oc(-c2ccn[nH]2)cc1S(=O)(=O)Nc1cccc(Cl)c1
SYSTEM: Plasmodium falciparum
IC50: 7.76 µM

COMPOUND: CCCN1C(=O)c2ccccc2N2C(=O)CC[C@@]12C(=O)Nc1ccccc1
SYSTEM: Plasmodium falciparum
IC50: 4.17 µM

COMPOUND: CC(Oc1ccc2c(c1)C(c1ccccc1)N(Cc1ccccc1F)CC2)C(=O)NC1CC1 (stereo unspecified)
SYSTEM: Plasmodium falciparum
IC50: 7.59 µM

COMPOUND: CCOc1cc(-c2cc(-c3ccccc3O)nc3ccc4ccccc4c23)cc(Br)c1O
SYSTEM: Plasmodium falciparum
IC50: 2.82 µM

COMPOUND: O=C(Cc1ccc(N(Cc2cccc(F)c2)C(=O)c2cccc(F)c2)cc1)NCCN1CCCCC1
SYSTEM: Plasmodium falciparum
IC50: 5.25 µM

COMPOUND: CCOc1cc(C(=O)Nc2ccc3nc4c(c(Nc5ccc(OC)c(OC)c5)c3c2)CCCC4)cc(OCC)c1OCC
SYSTEM: Plasmodium falciparum
IC50: 3.16 µM

COMPOUND: CCn1cc(C#N)c(=O)c2cc(F)c(N3CCN(Cc4ccccc4)CC3)cc21
SYSTEM: Plasmodium falciparum
IC50: > 10 µM

COMPOUND: CN1CCCN(c2ccnc3ccsc23)CC1
SYSTEM: Plasmodium falciparum
IC50: 3.8 µM

COMPOUND: COc1ccc(C(=O)C[n+]2cc(-c3ccc(OC)cc3)n3c2CCCC3)cc1
SYSTEM: Plasmodium falciparum
IC50: 2.34 µM

COMPOUND: Cc1noc(NCc2ccc(Cl)cc2)n1
SYSTEM: Plasmodium falciparum
IC50: 8.13 µM

COMPOUND: CC(C)c1ccc(Oc2cnn(-c3cccc(Cl)c3)c(=O)c2Nc2cccc(C(=O)NC3CC3)c2)cc1
SYSTEM: Plasmodium falciparum
IC50: 10 µM

COMPOUND: COc1ccc(-c2c[n+](-c3ccc(Cl)cc3)c3n2CCCCC3)cc1
SYSTEM: Plasmodium falciparum
IC50: 2.24 µM
